Source of measurements: PubChem BioAssay (NCI)

# Assay Summary: NCI Yeast Anticancer Drug Screen. Data for the bub3 strain (AID 167)
# Condition: S. cerevisiae bub3 mutant strain, at 5.0 µM (retest, dose inferred, filed as 0.5), stronger effect = higher value
The panel holds about 79,000 compounds, 15% with a hit somewhere; the sample as a whole holds those more often.
compounds and their reported growth inhibition
Provide only the numeric value, understood in %.

Dear colleague, please send me the reported growth inhibition for "CN(CCC1CCCCC1)CCC1CCCCC1" when you can.
30

Hello, please tell me recorded growth inhibition for this one: "Cc1ccc(-c2c(N)[n+]([O-])c3ccccc3[n+]2[O-])cc1"
54

Give reported growth inhibition value for "COC1=CC(=O)c2ncc(Cl)cc2C1=O"
-40

More entries:
Supply reported growth inhibition belonging to this compound: COc1cc2c(c(OC)c1OC)-c1ccc(O)c(=O)cc1C(N=Cc1ccccc1)CC2 (stereo not drawn)
-2

---

# Assay Summary: NCI Yeast Anticancer Drug Screen. Data for the rad50 strain (AID 155);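 also: 0% = growth of vehicle-only cultures of the same strain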
# Condition: S. cerevisiae rad50 strain growth inhibition; at 5.0 µM (retest, dose inferred, filed as 0.5); stronger effect = higher value
About 79,000 compounds went through this panel and 15% of them were active in at least one assay; those are over-represented in the sample as a whole.
Below is a list of entries, each paired with its recorded growth inhibition value.
Return type: number; implicit unit %.

Please list growth inhibition recorded for the molecule CC(=O)OC1COC(N2C(=O)C(=O)c3cc(Br)ccc32)C(OC(C)=O)C1OC(C)=O (configuration not stated)
-11

Give a short answer stating reported growth inhibition for "CCOC(=O)/C=C\c1c(Cl)n(-c2ccccc2)c(=O)n(-c2ccccc2)c1=O" .
31

For the molecule OC12C3C4CC5C(C4[C@@H]1Br)C2[C@@](O)(c1c(F)c(F)c(F)c(F)c1F)C53 (some centres not stated) , give its measured growth inhibition value.
8

Give the value of growth inhibition reported for the following: "O=C1C(=C2C(=O)c3ccccc3[N+]2=O)N([O-])c2ccccc21"
-2

More entries:
Assign growth inhibition to the following record: CCCCC(Cc1ccccc1)(C(=O)O)c1ccccc1 (configuration not stated)
11

State, in one line, measured growth inhibition of "Nc1ccc2nc(Nc3ccc(F)cc3)cnc2c1"
-11

Provide growth inhibition value for the following molecule: "C[n+]1c(/C=C/c2cccc([N+](=O)[O-])c2)sc2ccccc21"
10

Hello, please tell me recorded growth inhibition for this one: "Cn1nc(-c2ccc3c(c2)OCO3)[n+]([O-])c2c(=O)n(C)c(=O)nc1-2"
-2

Supply reported growth inhibition belonging to this molecule: "Cc1cc([N+](=O)[O-])cc(C)c1OC(=O)Nc1c(Cl)cccc1Cl"
37

Identify measured growth inhibition corresponding to CCC12C=CCN3CC[C@@]4(c5cc([C@@]6(C(=O)OC)C[C@@H]7CN(CCc8c6[nH]c6ccccc86)C[C@](O)(CC)C7)c(OC)cc5N(C)[C@H]4[C@@](O)(C(=O)OC)[C@@H]1OC(=O)CCCCCCCCCCCN1C(=O)C=CC1=O)[C@H]32 (some centres not stated)
16

Output growth inhibition of "Cn1c(=O)c2c(nnc(-c3ccccc3)[n+]2[O-])n(C)c1=O"
-3

---

# Assay Summary: NCI Yeast Anticancer Drug Screen. Data for the bub3 strain (AID 167)
# Condition: S. cerevisiae bub3 mutant strain, at 50.0 µM, stronger effect = higher value
Compounds without any hit were thinned out: in the full panel of roughly 79,000, 15% have a hit.
Decision: growth inhibition >= 80% yields Y, all other cases yield N.

Below, 3 molecules whose answers are already recorded.
Check the entry CCN1CCC(O)(/C=C/c2ccc(Cl)c(Cl)c2)C(C(=O)/C=C/c2ccc(Cl)c(Cl)c2)C1 (stereo not given) : does growth inhibition equal or exceed 80%?
Y

Hi team, for CN(/N=C\c1ccc(Cl)cc1)C(c1ccc(Cl)cc1)N(C)/N=C/c1ccc(Cl)cc1 (stereo not given) , is the recorded growth inhibition at or above 80%?
N

Threshold query (growth inhibition >= 80%) on NC(CSSCC(N)C(=O)Nc1ccc2ccccc2c1)C(=O)Nc1ccc2ccccc2c1 (stereo not given)
Y

Now for another entry.
// inclusive: growth inhibition at least 80%? input: "CC(=O)OC[C@@H](OC(C)=O)[C@H](OC(C)=O)c1cnn(-c2ccccc2)n1"
N

---

# Assay Summary: NCI Yeast Anticancer Drug Screen. Data for the bub3 strain (AID 167)
# Condition: S. cerevisiae bub3 mutant strain, at 5.0 µM (retest, dose inferred, filed as 0.5)
# Procedure: Growth inhibition of yeast strains with defined genetic alterations is measured as a screen for potential anti-cancer activity. Selected strains with alterations in DNA damage repair or cell cycle control were exposed to compounds and growth inhibition was measured relative to vehicle treated controls. The strain used in this assay is bub3
The panel holds about 79,000 compounds, 15% with a hit somewhere; the sample as a whole holds those more often. Activity calls are given as the source filed them. Cut-off read from the data, not from the text of the source: active = growth inhibition above about 70%; inactive = the rest.
Choose the fitting class; nothing outside Yes for active, No for inactive is accepted.

Solved entries (count: 5):
Per the records of this test, what outcome belongs to "COc1ccc(C2CC(=O)CC(=O)C2)cc1" ?
No

State the result this test recorded for CCOC(=O)C1CCC(=O)O1 (centres undefined) .
No

Please share the test call associated with CCCCCCC(C)S(=O)(=O)c1ccc(C)cc1 (centres undefined) .
No

Which outcome did this test record for the compound O=C1/C(=C\c2ccccc2)C(NC2CCCCC2)c2ccccc21 (centres undefined) ?
Yes

Could you kindly confirm the outcome this assay logged for "Oc1ccc(C(c2ccccc2)(c2ccccc2)c2ccccc2)cc1O" ?
No

---
Recorded test outcome, item "COc1ccc2c(C#N)cc3c(c[n+](C)c4ccccc34)c2c1"
No

Fill in: this test's call for "c1cc(SSc2ccncc2)ccn1" is ___
No

Kindly provide the recorded test outcome for the following compound: "[N-]=[N+]=Nc1c(C=O)c(=O)n(-c2ccccc2)c2ccccc12"
No

// outcome(item) with item = "Cn1c(=O)c2c(ncn2-c2ccncc2)n(C)c1=O"
No

Test call for this compound, please: "BrCc1ccc2ccc3ccc(CBr)nc3c2n1"
No

For "Nc1ccc(O)c(=O)cc1" , what call appears in the results of this test?
No

---

# Assay Summary: NCI Yeast Anticancer Drug Screen. Data for the mec2-1 strain (AID 157)
# Condition: S. cerevisiae mec2-1 strain, at 5.0 µM (retest, dose inferred, filed as 0.5), stronger effect = higher value
The panel holds about 79,000 compounds, 15% with a hit somewhere; the sample as a whole holds those more often.
Result Type: growth inhibition (%)
Give just the number in %; leave the unit off.

Study these solved cases before continuing.
Output growth inhibition of CCC(C)NC(=S)N/N=C(\C)c1ccccn1 (stereo not given)
19

Look up and report measured growth inhibition for this entry: CCN(CC)c1ccc(Cl)c2c1C(O)(C(C)C)C2(C)C (stereo not given)
9

Return value of growth inhibition for input "Cc1cc(O)c(C(=O)/C=C/c2ccnc3ccccc23)c(=O)o1" , no commentary.
-17

Name the recorded growth inhibition of the compound listed here: "N#Cc1c(-c2ccc(Cl)cc2)c(-c2ccc(Cl)cc2)nn(CCOC(=O)CN)c1=O"
10

Attention now turns to another entry.
Output measured growth inhibition for this item: "Cc1ccc(NC(=O)/C(CC(=O)c2sc(Nc3ccc(Cl)c(Cl)c3)nc2C)=N\Nc2ccc([N+](=O)[O-])cc2[N+](=O)[O-])c(C)c1"
-4

---

# Assay Summary: NCI Yeast Anticancer Drug Screen. Data for the mec2-1 strain (AID 157)
# Condition: S. cerevisiae mec2-1 strain, at 50.0 µM (retest, dose inferred, filed as 5.0)
Compounds without any hit were thinned out: in the full panel of roughly 79,000, 15% have a hit. Activity calls are given as the source filed them. No stated cut-off is given here; in the data, active means growth inhibition above about 70%; inactive means the rest.
Output constraint: value belongs to True (active), False (inactive)

Solved cases below.
Tell me the recorded outcome of this test for "Cc1c(Cl)cc2[nH]c(C(F)(F)F)nc2c1Cl" .
True

Outcome logged for C/C(=N\NC(N)=S)C(CN1CCCCC1)C(C1=C(O)c2ccccc2OC1)c1ccccc1 (configuration not stated) in this assay:
False

// return assay outcome for "COc1ccc(C=O)cc1C[P+](c1ccccc1)(c1ccccc1)c1ccccc1"
True

In this assay, the call recorded for COc1ccc(/C=C/C(=N/NC(=O)c2ccccc2)C(C)CN(C)C)cc1 (configuration not stated) was what?
False

Hi team, can someone confirm the assay call for "Cc1c(N=Nc2ccc(Br)cc2)c(-c2ccccc2)nn1C(N)=S" ?
True

Next:
Which outcome was entered for the compound "COc1ccc(CN2CCCN(Cc3ccc(OC)cc3OC)C2c2cccc([N+](=O)[O-])c2O)c(OC)c1" in this test?
False

Write down the call the test reported for this compound. Item: CC(=O)c1cccc(NC2C(N)C(NC(=O)N(C)C)(C(C)O)C(C)(O)C2(O)COC(=O)c2c(C)cccc2O)c1 (configuration not stated)
True

Assay outcome for "Cc1ccc2nc(C[n+]3cccc4ccccc43)ccc2c1" : what was it?
True

Hi, sorry to bother you, what did the test record for "Nc1ccc2c(c1)[nH]c(=O)c1ccc(Cl)cc12" ?
True

I'd appreciate the recorded outcome for "COc1ccc2cc(CNCCCCCCCCNCc3ccc4cc(OC)ccc4c3)ccc2c1" from this test.
True

Lab log entry: "COc1ccc2c(c1)CCc1c(-c3noc4c3CCc3cc(OC)ccc3-4)noc1-2" — outcome as called in the assay?
False

What is the recorded call for this compound in the test? OCC1CCc2[nH]c3ccccc3c2C1 (configuration not stated)
False

Look up the recorded call for "CCOP(=O)(OCC)C(=C1C=C(C(C)(C)C)C(=O)C(C(C)(C)C)=C1)P(=O)(OCC)OCC" in this test.
True

Each compound tested received a call. Report the one for "O=C(Nc1cc(Cl)cc(Cl)c1)C(F)(F)F" .
True

Test call for this compound, please: COc1ccc(C2c3cc4c(cc3OC(C)(O)C2C)OCO4)cc1 (configuration not stated)
True
